subject.of.test: TAOK1 (human) (UniProt Q7L7X3)
Sequence (Q7L7X3 whole entry, looked up): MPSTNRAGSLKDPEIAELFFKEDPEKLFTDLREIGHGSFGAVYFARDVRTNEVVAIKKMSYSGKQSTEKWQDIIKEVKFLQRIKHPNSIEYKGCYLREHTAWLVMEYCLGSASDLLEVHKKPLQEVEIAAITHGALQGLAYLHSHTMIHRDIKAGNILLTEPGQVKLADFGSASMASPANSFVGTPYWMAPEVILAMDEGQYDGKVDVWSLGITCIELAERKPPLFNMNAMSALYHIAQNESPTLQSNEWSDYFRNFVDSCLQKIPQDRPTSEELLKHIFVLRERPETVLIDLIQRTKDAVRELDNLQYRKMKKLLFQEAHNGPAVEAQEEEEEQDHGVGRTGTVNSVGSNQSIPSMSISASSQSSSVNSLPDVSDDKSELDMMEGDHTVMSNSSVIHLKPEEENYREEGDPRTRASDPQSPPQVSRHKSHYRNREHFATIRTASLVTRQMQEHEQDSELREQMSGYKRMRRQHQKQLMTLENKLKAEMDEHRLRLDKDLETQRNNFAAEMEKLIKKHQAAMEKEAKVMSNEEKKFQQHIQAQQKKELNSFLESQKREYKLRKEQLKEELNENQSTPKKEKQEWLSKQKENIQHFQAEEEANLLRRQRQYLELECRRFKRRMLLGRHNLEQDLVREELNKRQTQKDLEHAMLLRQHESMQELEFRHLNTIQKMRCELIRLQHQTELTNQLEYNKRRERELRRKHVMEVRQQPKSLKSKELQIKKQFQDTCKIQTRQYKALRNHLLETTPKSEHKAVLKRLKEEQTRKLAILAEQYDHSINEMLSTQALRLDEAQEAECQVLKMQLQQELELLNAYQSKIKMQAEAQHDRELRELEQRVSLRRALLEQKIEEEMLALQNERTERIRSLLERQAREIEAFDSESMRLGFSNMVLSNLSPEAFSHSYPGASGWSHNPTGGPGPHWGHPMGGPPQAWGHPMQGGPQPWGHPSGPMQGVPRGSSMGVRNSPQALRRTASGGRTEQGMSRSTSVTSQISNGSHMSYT
measurement.protocol: radiometric filter-binding kinase assay
measurement.context: compound 0.1 µM
assay.endpoint: residual activity (%)

I = Cc1ccc(Sc2cnc(Nc3cccc(Br)n3)s2)cc1C(=O)N1CCN(C(=O)CN)CC1
II = CCn1c(-c2nonc2N)nc2cncc(CNC3CCNCC3)c21
Field: lower residual activity | Options: I / II Respond with the label that goes with your answer.
I
(I: 42%, II: 100%)

I = COc1ccc(-n2ncc3cnc(Nc4cc(OC)c(OC)c(OCCCN5CCN(C)CC5)c4)nc32)cc1
II = CNC(=O)C1[C@H]2O[C@@](C)([C@@H]1N)n1c3ccccc3c3c4c(c5c6ccccc6n2c5c31)C(=O)NC4 (stereo partly specified)
Field: lower residual activity | Options: I / II Respond with the label that goes with your answer.
II

###

subject.of.test: UniProt:P17252
measurement.protocol: radiometric filter-binding kinase assay
measurement.context: compound 1.0 µM
assay.endpoint: residual activity (%)

So for O=C(N[C@@H](COc1ccc2[nH]c(=O)[nH]c2c1)c1ccccc1)c1cccn(Cc2ccc(F)c(F)c2)c1=O , the logged residual activity turned out to be 91

So for O=C(NOCC(O)CO)c1ccc(F)c(F)c1Nc1ccc(I)cc1Cl (centres undefined) , the logged residual activity turned out to be 93

So for NC1(c2ccc(-c3nc4ccn5c(=O)[nH]nc5c4cc3-c3ccccc3)cc2)CCC1 , the logged residual activity turned out to be 94

So for COc1cc(O)c2c(c1)/C=C/C[C@H](O)[C@H](O)C(=O)/C=C\C[C@H](C)OC2=O , the logged residual activity turned out to be 85

So for COc1ccc(N(C(=O)Nc2c(C)cccc2C)c2cc(Nc3ccc(N4CCN(C)CC4)cc3)ncn2)c(OC)c1 , the logged residual activity turned out to be 104

So for O=c1c(O)c(-c2ccc(O)c(O)c2)oc2cc(O)c(O)c(O)c12 , the logged residual activity turned out to be 99

a = COc1ccc2c(c1)c1c3c(c4c5ccccc5n(C)c4c1n2CC(O)CN(C)C)C(=O)NC3=O (centres undefined)
b = O=C(O)c1cc(N=Nc2ccc(S(=O)(=O)Nc3ccccn3)cc2)ccc1O
Field: lower residual activity | Options: a / b Respond with the label that goes with your answer.
a

###

subject.of.test: GSK3B (human) (UniProt P49841)
Sequence (P49841 whole entry, looked up): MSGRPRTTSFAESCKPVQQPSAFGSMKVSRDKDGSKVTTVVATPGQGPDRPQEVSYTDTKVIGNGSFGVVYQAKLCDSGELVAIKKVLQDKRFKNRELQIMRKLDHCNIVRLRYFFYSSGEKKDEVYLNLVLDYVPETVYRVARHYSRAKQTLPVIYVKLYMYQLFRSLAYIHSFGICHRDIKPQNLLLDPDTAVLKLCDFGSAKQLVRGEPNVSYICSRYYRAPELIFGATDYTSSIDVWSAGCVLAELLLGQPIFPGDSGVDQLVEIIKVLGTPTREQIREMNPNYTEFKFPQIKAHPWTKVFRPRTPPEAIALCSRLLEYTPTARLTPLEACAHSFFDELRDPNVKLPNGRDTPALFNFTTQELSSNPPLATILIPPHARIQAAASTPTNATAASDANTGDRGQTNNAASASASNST
measurement.protocol: radiometric filter-binding kinase assay
measurement.context: compound 10.0 µM
assay.endpoint: residual activity (%)

Example results:
So for NC(=O)c1c(NC(=O)C2CC2)sc2c1CCCC2 , the logged residual activity turned out to be 42

So for Oc1ccc(/C=C/c2cc(O)cc(O)c2)cc1 , the logged residual activity turned out to be 80

So for NCC(=O)Nc1ccc(-n2nc(C(F)(F)F)cc2-c2ccc3c(ccc4ccccc43)c2)cc1 , the logged residual activity turned out to be 119

So for Cc1ccc2c(c1)C(=O)[C@@]1(O)CCN(c3ccccc3)C1=N2 , the logged residual activity turned out to be 88

So for Cc1nc(-c2ccc(OCC(C)C)c(C#N)c2)sc1C(=O)O , the logged residual activity turned out to be 74

A = O=C(NOC[C@H](O)CO)c1ccc(F)c(F)c1Nc1ccc(I)cc1Cl
B = COc1ccc2c(c1)c1c3c(c4c5ccccc5n(C)c4c1n2CC(O)CN(C)C)C(=O)NC3=O (centres undefined)
C = NC(=O)c1ccc(-c2ccc(Oc3cncc4sc(-c5nn[nH]n5)cc34)cc2)cc1
D = Cc1cccc(Nc2nn(C)c3ncnc(N)c23)c1
Ascending by residual activity, please. The response must list the labels following the requested ordering.
B, C, A, D
(B: 5%, C: 10%, A: 88%, D: 133%)
